# System name: UniProt:P16116
# Assay protocol: In vitro aldose reductase inhibitory activity measured by NADPH-dependent inhibition of glyceraldehyde reduction in a partially purified bovine lens preparation at 10E-6 M
Value kind: inhibition

INSERT INTO results (molecule, value_kind, reported_result) VALUES
  ('O=C1CC2(C(=O)N1)c1ccccc1S(=O)(=O)N2Cc1ccc2ccccc2c1Br (stereo not drawn)', 'inhibition', '25%'),
  ('CCCCN1C(=O)c2ccccc2C12CC(=O)NC2=O (stereo not drawn)', 'inhibition', '0%'),
  ('O=C1CC2(C(=O)N1)c1ccccc1S(=O)(=O)N2Cc1ccc([N+](=O)[O-])cc1 (stereo not drawn)', 'inhibition', '0%');

---

# System name: UniProt P16116
# Assay protocol: NADPH-dependent inhibition of glyceraldehyde reduction by partially purified aldose reductase from bovine lens at 10e-5 M
Value kind: inhibition (%)

INSERT INTO assay_data (compound, system_name, value_kind, readout_units, reported_result) VALUES
  ('O=C(O)CN1C2(CC(=O)NC2=O)c2ccccc2S1(=O)=O (stereo not given)', 'UniProt P16116', 'inhibition', '%', 0),
  ('O=C1CC2(C(=O)N1)c1ccccc1S(=O)(=O)N2Cc1ccc2ccccc2c1Br (stereo not given)', 'UniProt P16116', 'inhibition', '%', 59),
  ('O=C1CC2(C(=O)N1)c1ccccc1S(=O)(=O)N2Cc1ccc(Oc2ccccc2)cc1 (stereo not given)', 'UniProt P16116', 'inhibition', '%', 67),
  ('O=C1CC2(C(=O)N1)c1ccccc1S(=O)(=O)N2Cc1ccc(-c2ccccc2)cc1 (stereo not given)', 'UniProt P16116', 'inhibition', '%', 54),
  ('O=C1CC2(C(=O)N1)c1ccccc1S(=O)(=O)N2Cc1ccc([N+](=O)[O-])cc1 (stereo not given)', 'UniProt P16116', 'inhibition', '%', 37);

---

inhibition by entry:
# System name: UniProtKB P16116
# Assay protocol: In vitro aldose reductase inhibitory activity measured by NADPH-dependent inhibition of glyceraldehyde reduction in a partially purified bovine lens preparation at 10E-7 M
Value kind: inhibition

INSERT INTO assay_data (molecule, value_kind, reported_result) VALUES
  ('Cc1cccc2c1C(=O)N(C)C21CC(=O)NC1=O (stereo not drawn)', 'inhibition', '11%'),
  ('O=C1CC2(C(=O)N1)C(=O)N(Cc1ccc(Br)cc1F)c1c(Cl)cccc12 (stereo not drawn)', 'inhibition', '83%'),
  ('Cc1ccc2c(c1)C(=O)N(C)C21CC(=O)NC1=O (stereo not drawn)', 'inhibition', '26%'),
  ('CN1C(=O)c2ccc([N+](=O)[O-])cc2C12CC(=O)NC2=O (stereo not drawn)', 'inhibition', '32%'),
  ('CN1C(=O)c2cccc(Cl)c2C12CC(=O)NC2=O (stereo not drawn)', 'inhibition', '19%'),
  ('CN1C(=O)c2ccccc2C12CC(=O)NC2=O (stereo not drawn)', 'inhibition', '11%'),
  ('O=C1CC2(C(=O)N1)c1cc(Cl)ccc1C(=O)N2Cc1ccc(Br)cc1F (stereo not drawn)', 'inhibition', '13%'),
  ('CN1C(=O)c2ccc(Cl)cc2C12CC(=O)NC2=O (single isomer, unassigned; (+))', 'inhibition', '39%'),
  ('CCN1C(=O)c2ccc(Cl)cc2C12CC(=O)NC2=O (stereo not drawn)', 'inhibition', '14%'),
  ('CN1C(=O)c2cc(-c3ccccc3)ccc2C12CC(=O)NC2=O (stereo not drawn)', 'inhibition', '37%'),
  ('O=C1CC2(C(=O)N1)c1ccccc1C(=O)N2Cc1ccc(Cl)c(Cl)c1 (stereo not drawn)', 'inhibition', '18%'),
  ('CN1C(=O)c2cc3ccccc3cc2C12CC(=O)NC2=O (stereo not drawn)', 'inhibition', '37%'),
  ('CN1C(=O)c2cc(Cl)c(Cl)cc2C12CC(=O)NC2=O (stereo not drawn)', 'inhibition', '38%'),
  ('CN1C(=O)c2ccc(F)cc2C12CC(=O)NC2=O (stereo not drawn)', 'inhibition', '29%'),
  ('O=C1CC2(C(=O)N1)C(=O)N1CCOc3cc(Cl)cc2c31 (stereo not drawn)', 'inhibition', '32%'),
  ('CN1C(=O)c2cc(Cl)ccc2C12CC(=O)NC2=O (stereo not drawn)', 'inhibition', '21%'),
  ('CN1C(=O)c2ccc(Cl)cc2C12CC(=O)NC2=O (stereo in doubt; 32)', 'inhibition', '37%'),
  ('O=C1CC2(C(=O)N1)c1ccccc1C(=O)N2Cc1ccc(Br)cc1F (stereo not drawn)', 'inhibition', '7%'),
  ('CN1C(=O)c2cc(Br)ccc2C12CC(=O)NC2=O (stereo not drawn)', 'inhibition', '27%'),
  ('CCN1C(=O)c2ccccc2C12CC(=O)NC2=O (stereo not drawn)', 'inhibition', '0%'),
  ('CN1C(=O)c2ccc(Cl)cc2C12CC(=O)NC2=O (single isomer, unassigned; (-))', 'inhibition', '0%'),
  ('COC(=O)c1ccc2c(c1)C1(CC(=O)NC1=O)N(C)C2=O (stereo not drawn)', 'inhibition', '14%'),
  ('CN1C(=O)c2c(Cl)cccc2C12CC(=O)NC2=O (stereo not drawn)', 'inhibition', '29%');

---

In this section we review reported inhibition values for a set of compounds.
# System name: Aldo-keto reductase family 1 member B1 (Bos taurus) (UniProt P16116)
# Assay protocol: In vitro aldose reductase inhibitory activity measured by NADPH-dependent inhibition of glyceraldehyde reduction in a partially purified bovine lens preparation at 10E-6 M
Value kind: inhibition (%)

INSERT INTO assay_data (compound, reported_result) VALUES
  ('O=C1CC2(C(=O)N1)c1cc(Cl)ccc1C(=O)N2Cc1ccc(Br)cc1F (stereo unspecified)', 70),
  ('CN1C(=O)c2cc(Cl)ccc2C12CC(=O)NC2=O (stereo unspecified)', 72),
  ('O=C1CC2(C(=O)N1)c1ccccc1S(=O)(=O)N2Cc1ccc(-c2ccccc2)cc1 (stereo unspecified)', 15),
  ('O=C1CC2(C(=O)N1)c1ccccc1S(=O)(=O)N2Cc1ccccc1 (stereo unspecified)', 0),
  ('CN1C(=O)c2ccc([N+](=O)[O-])cc2C12CC(=O)NC2=O (stereo unspecified)', 77),
  ('O=C1CC2(C(=O)N1)c1ccccc1S(=O)(=O)N2Cc1ccc2ccccc2c1 (stereo unspecified)', 20),
  ('O=C1CC2(C(=O)N1)c1ccccc1S(=O)(=O)N2Cc1ccc(Cl)c(Cl)c1 (stereo unspecified)', 0),
  ('Cc1cccc2c1C(=O)N(C)C21CC(=O)NC1=O (stereo unspecified)', 59),
  ('CCN1C(=O)c2ccccc2C12CC(=O)NC2=O (stereo unspecified)', 21),
  ('Cc1ccc2c(c1)C(=O)N(C)C21CC(=O)NC1=O (stereo unspecified)', 61),
  ('CN1C(=O)c2c(Cl)cccc2C12CC(=O)NC2=O (stereo unspecified)', 65);

---

# System name: Aldo-keto reductase family 1 member B1 (Bos taurus) (UniProt P16116)
# Assay protocol: In vitro aldose reductase inhibitory activity measured by NADPH-dependent inhibition of glyceraldehyde reduction in a partially purified bovine lens preparation at 10E-6 M
Value kind: inhibition (%)

INSERT INTO assay_data (compound, readout_units, reported_result) VALUES
  ('CSc1ccc2c(c1)C(=O)N(C)C21CC(=O)NC1=O (configuration not stated)', '%', 60),
  ('CCN1C(=O)c2ccc(Cl)cc2C12CC(=O)NC2=O (configuration not stated)', '%', 37),
  ('CN1C(=O)c2cc(-c3ccccc3)ccc2C12CC(=O)NC2=O (configuration not stated)', '%', 81),
  ('CN1C(=O)c2ccccc2C12CC(=O)NC2=O (configuration not stated)', '%', 45),
  ('CN1C2(CC(=O)NC2=O)c2ccccc2S1(=O)=O (configuration not stated)', '%', 0),
  ('O=C1CC2(C(=O)N1)c1ccccc1C(=O)N2Cc1ccc(Br)cc1F (configuration not stated)', '%', 54),
  ('CN1C(=O)c2ccc(Cl)cc2C12CC(=O)NC2=O (single isomer, unassigned; (-))', '%', 33),
  ('O=C1CC2(C(=O)N1)c1ccccc1S(=O)(=O)N2Cc1ccc(Br)cc1F (configuration not stated)', '%', 0),
  ('CN1C(=O)c2ccc(Cl)cc2C12CC(=O)NC2=O (stereo in doubt; 32)', '%', 80),
  ('O=C1CC2(C(=O)N1)c1ccccc1S(=O)(=O)N2Cc1ccc(Oc2ccccc2)cc1 (configuration not stated)', '%', 24),
  ('CN1C(=O)c2ccc(F)cc2C12CC(=O)NC2=O (configuration not stated)', '%', 74),
  ('O=C1CC2(C(=O)N1)c1ccccc1C(=O)N2Cc1ccc(Cl)c(Cl)c1 (configuration not stated)', '%', 45),
  ('CN1C(=O)c2cc(Cl)c(Cl)cc2C12CC(=O)NC2=O (configuration not stated)', '%', 83),
  ('O=C1CC2(C(=O)N1)C(=O)N1CCOc3cc(Cl)cc2c31 (configuration not stated)', '%', 66),
  ('COC(=O)c1ccc2c(c1)C1(CC(=O)NC1=O)N(C)C2=O (configuration not stated)', '%', 49),
  ('O=C1CC2(C(=O)N1)c1ccccc1S(=O)(=O)N2Cc1ccc(C(F)(F)F)cc1 (configuration not stated)', '%', 0),
  ('CN1C(=O)c2cccc(Cl)c2C12CC(=O)NC2=O (configuration not stated)', '%', 57),
  ('CN1C(=O)c2cc3ccccc3cc2C12CC(=O)NC2=O (configuration not stated)', '%', 82),
  ('O=C1CC2(C(=O)N1)C(=O)N(Cc1ccc(Br)cc1F)c1c(Cl)cccc12 (configuration not stated)', '%', 92),
  ('CN1C(=O)c2ccc(Cl)cc2C12CC(=O)NC2=O (single isomer, unassigned; (+))', '%', 82),
  ('CN1C(=O)c2cc(Br)ccc2C12CC(=O)NC2=O (configuration not stated)', '%', 71),
  ('COc1ccc2c(c1)C(=O)N(C)C21CC(=O)NC1=O (configuration not stated)', '%', 56);
